- System Tested: E. coli PhoR (PhoR^E) (Escherichia coli, UniProt P08400)
- Construct: The catalytic portion (DHp and CA domain) of E. coli PhoR (PhoR^E); made in house; host or cells: E. coli RIL
- Sequence (P08400 210-425): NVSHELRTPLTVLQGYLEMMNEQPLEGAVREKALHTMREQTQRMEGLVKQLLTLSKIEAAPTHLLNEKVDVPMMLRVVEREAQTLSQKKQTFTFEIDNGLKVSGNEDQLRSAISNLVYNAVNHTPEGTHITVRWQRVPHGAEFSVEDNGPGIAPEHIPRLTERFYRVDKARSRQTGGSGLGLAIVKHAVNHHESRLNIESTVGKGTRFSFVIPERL
- Protocol Details: In vitro autophosphorylation kinase assay with γ-32P-ATP, PhoR^E
- Assay type: biochemical
- Particulars: IC50 PhoR^E, autophosphorylation, one time point (30 sec), 10% DMSO
Recorded Endpoint: IC50

Some compounds with recorded IC50:
INSERT INTO assay_data (compound, value_measured) VALUES
  ('CC(=O)Nc1ccc(-c2ccc(F)cc2)cc1 [S1.2]', '< 2 mM'),
  ('CC(=O)Nc1ccc2c(c1)C(=Nc1ccc(F)cc1)c1ccccc1-2 [S1.10]', '> 2 mM'),
  ('CC(=O)Nc1cccc(S(=O)(=O)c2cccc(NC(C)=O)c2)c1 [S1.9]', '> 2 mM'),
  ('CC(=O)Nc1ccc(NC(=O)c2cccc(F)c2)cc1 [S1.3]', '> 2 mM');

Next, consider the following compound.
In: Report value only: IC50, E. coli PhoR (PhoR^E) (Escherichia coli, UniProt P08400), CC(=O)Nc1ccc[n+](CC(=O)c2ccc(F)cc2)c1 [S1.5]
Out: > 2 mM

Data origin, for the record: paper PMC4865847
